Every entry's value here was drawn from patent US5622965A.

The entries below are paired with their reported Ki.
# TESTED SYSTEM: glycine/NMDA receptor
# ASSAY NOTES: 1 μM glycine-stimulated [3H]-MK801 binding assay (glycine/NMDA receptor)
# CONDITION INFO: glycine/NMDA receptor binding
OBSERVABLE: Ki (µM)

{"columns": ["COMPOUND", "OBSERVABLE", "UNITS TEXT", "RESULT"],
 "data": [
  ["O=c1[nH]c2ccccc2c(O)c1[N+](=O)[O-] [Compound 16a]", "Ki", "µM", 18],
  ["O=c1[nH]c2cc(Cl)cc(Cl)c2c(O)c1[N+](=O)[O-] [Compound 16c]", "Ki", "µM", 1.4]
]}
